Data origin: PubChem BioAssay AID248

Tested on: L1210 leukemia ip in BDF1 mice, survival T/C
Experiment: NCI In Vivo Anticancer Drug Screen. Data for tumor model L1210 Leukemia (intraperitoneal) in B6D2F1 (BDF1) mice
Details: endpoint: mean survival time; dose: 25.0 mg/kg/injection; schedule: Q04DX002 (ip); vehicle: saline with Tween-80; higher = longer survival
Toxic doses and inconclusive results are not listed.
Attribute measured: T/C

Below are worked cases with known answers.
[
  {
    "Compound": "CCN(CC)CC(=O)NCC(CCN(C)C)(CCN(C)C)c1cccc2ccccc12",
    "T/C": "115 % of control"
  },
  {
    "Compound": "Cc1nc(C(N)=O)c2nc3c4ccccc4c4ccccc4c3nn12",
    "T/C": "94 % of control"
  },
  {
    "Compound": "COc1cc2c(cc1OC)N=Cc1cccn1C2",
    "T/C": "94 % of control"
  }
]

Note: attention shifts to another entry.
Memo: CC(C)(C)C(O)c1ccccc1 (centres undefined) , reported T/C: 97 % of control

====

Test system: L1210 leukemia ip in BDF1 mice, survival T/C
Test: NCI In Vivo Anticancer Drug Screen. Data for tumor model L1210 Leukemia (intraperitoneal) in B6D2F1 (BDF1) mice
Settings: endpoint: mean survival time; dose: 200.0 mg/kg/injection; schedule: Q01DX009 (ip); vehicle: Klucel (hydroxypropylcellulose) (HPC); higher = longer survival
Toxic doses and inconclusive results are not listed.
Attribute measured: T/C

Below are worked cases with known answers.
[
  {
    "Compound": "Cc1cc(C(=O)O)c(C)n1-c1cccc2ccccc12",
    "T/C": "108 % of control"
  },
  {
    "Compound": "Oc1ccccc1C=Nc1ccc(Cl)c(Cl)c1",
    "T/C": "93 % of control"
  },
  {
    "Compound": "CC1(CBr)Oc2ccccc2O1",
    "T/C": "97 % of control"
  }
]

Memo: Cc1cccc(NC(=O)c2ccccc2C(=O)O)c1C , reported T/C: 93 % of control

Memo: CCCC(=O)C(C)C(=O)C(F)(F)F.CCCC(=O)C(C)C(=O)C(F)(F)F.CCCC(=O)C(C)C(=O)C(F)(F)F.[Er] (stereo not given) , reported T/C: 102 % of control

Memo: CC(C)Cc1ccccc1 , reported T/C: 100 % of control

Memo: CCOC(=O)C/C(=N\NC(=O)c1ccccc1O)C(=O)OCC , reported T/C: 102 % of control

Memo: O=C1Nc2ccc(Cl)cc2C(c2ccccc2)=NC1O (stereo not given) , reported T/C: 107 % of control

Memo: Cc1ccc(S(=O)(=O)N(CCC#N)CCC#N)cc1 , reported T/C: 92 % of control

====

Test system: L1210 leukemia ip in BDF1 mice, survival T/C
Assay: NCI In Vivo Anticancer Drug Screen. Data for tumor model L1210 Leukemia (intraperitoneal) in B6D2F1 (BDF1) mice
Details: endpoint: mean survival time; dose: 3.12 mg/kg/injection; schedule: Q01DX009 (ip); vehicle: saline; higher = longer survival
Inconclusive results and toxic doses are left out.
Each entry below carries its recorded T/C.

[
  {
    "Molecule": "CN1CCCCC1CCN1c2ccccc2Sc2ccc(Cl)cc21 (stereo unspecified)",
    "Reported result": "96 % of control"
  }
]

Memo: COC(=O)C1=CCCN(C)C1 , reported T/C: 103 % of control

Memo: COc1ccc2c(=O)c(C)c(-c3ccccc3)oc2c1CN(C)C , reported T/C: 108 % of control

Memo: C[CH2][Sn]([CH2]C)([O]S(C)(=O)=O)[O]S(C)(=O)=O , reported T/C: 106 % of control

Memo: C=C1C2CCC3C4(C)CC(OC5OC(CO)C(OS(=O)(=O)O)C(OS(=O)(=O)O)C5OC(=O)CCCC)CC(C(=O)O)C4CCC3(C2)C1O (stereo unspecified) , reported T/C: 104 % of control

Memo: CC(CN1CCN(CCOCCO)CC1)CN1c2ccccc2Sc2ccccc21 (stereo unspecified) , reported T/C: 103 % of control

====

Tested on: L1210 leukemia ip in BDF1 mice, survival T/C
Assay: NCI In Vivo Anticancer Drug Screen. Data for tumor model L1210 Leukemia (intraperitoneal) in B6D2F1 (BDF1) mice
Conditions: endpoint: mean survival time; dose: 400.0 mg/kg/injection; schedule: Q04DX002 (ip); vehicle: Klucel (hydroxypropylcellulose) (HPC); higher = longer survival
Procedure: The antitumor activity of compounds was measured in mice bearing transplantable tumors. Survival or tumor size were measured and the results are expressed as the measurement made in the treated group (T) divided by the measurement made in the vehicle treated control group (C). The tumor model used in this assay is L1210 Leukemia (intraperitoneal) in B6D2F1 (BDF1) mice
Inconclusive results and toxic doses are left out.
Attribute measured: T/C

Below are worked cases with known answers.
[
  {
    "Compound": "C/C=C\\c1ccc(OC(=O)NCCC)c(OC)c1",
    "T/C": "95 % of control"
  },
  {
    "Compound": "Nc1nc(-c2ccccc2)nc2nc3[nH]c(=O)[nH]c(=O)c3nc12",
    "T/C": "98 % of control"
  }
]

Here CCc1nc(N(C)CC(=O)O)nc(CC)c1-c1ccccc1O was tested on L1210 leukemia ip in BDF1 mice, survival T/C, and its T/C came to 86 % of control

Here COc1ccc(C(=O)CC2(O)C(=O)Nc3ccc(Br)cc32)cc1 (configuration not stated) was tested on L1210 leukemia ip in BDF1 mice, survival T/C, and its T/C came to 92 % of control

Here CCCCCCCCCC(=O)Nc1ccc(CC)cc1 was tested on L1210 leukemia ip in BDF1 mice, survival T/C, and its T/C came to 111 % of control

Here COc1ccc(NC(=O)Oc2ccc3ccccc3c2)c(OC)c1 was tested on L1210 leukemia ip in BDF1 mice, survival T/C, and its T/C came to 104 % of control

====

Tested on: L1210 leukemia ip in BDF1 mice, survival T/C
Assay: NCI In Vivo Anticancer Drug Screen. Data for tumor model L1210 Leukemia (intraperitoneal) in B6D2F1 (BDF1) mice
Details: endpoint: mean survival time; dose: 200.0 mg/kg/injection; schedule: Q01DX001 (ip); vehicle: saline; higher = longer survival
Inconclusive results and toxic doses are left out.
Attribute measured: T/C

[
  {
    "Compound": "CC1=CP(=O)(c2ccccc2)CC1 (stereo not drawn)",
    "Attribute measured": "T/C",
    "Reported result": "102 % of control"
  }
]

Memo: Cc1ccc(C)c2c1C1=C(CCCC1)S2(=O)=O , reported T/C: 102 % of control

Memo: Cc1ccc([N+](=O)[O-])cc1CN(CCO)CCO , reported T/C: 95 % of control

Memo: C1CCNNC1 , reported T/C: 98 % of control

Memo: COc1ccc(/C=C\C(=O)OCCCCOC(=O)/C=C/c2ccc(OC)cc2)cc1 , reported T/C: 95 % of control

Memo: O=C(CO)NCO , reported T/C: 101 % of control

Memo: CC(=O)c1ccc(N=NC2C(=O)N(c3ccccc3)N=C2C)cc1 (stereo not drawn) , reported T/C: 94 % of control

====

Each entry below carries its recorded T/C.
Test system: L1210 leukemia ip in BDF1 mice, survival T/C
Assay: NCI In Vivo Anticancer Drug Screen. Data for tumor model L1210 Leukemia (intraperitoneal) in B6D2F1 (BDF1) mice
Conditions: endpoint: mean survival time; dose: 25.0 mg/kg/injection; schedule: Q04DX003 (ip); vehicle: Klucel (hydroxypropylcellulose) (HPC); higher = longer survival
Inconclusive results and toxic doses are left out.

[
  {
    "Compound": "CCOC(=O)CCc1c(C(=O)O)[nH]c(C(=O)OCC)c1C",
    "Target desc": "L1210 leukemia ip in BDF1 mice, survival T/C",
    "Reported result": "102 % of control"
  },
  {
    "Compound": "CC(C)NC(=O)c1ccc(/C=N/N(C)C)cc1",
    "Target desc": "L1210 leukemia ip in BDF1 mice, survival T/C",
    "Reported result": "104 % of control"
  },
  {
    "Compound": "CN(/N=N/c1nc[nH]c1C(N)=O)C(C)(C)C",
    "Target desc": "L1210 leukemia ip in BDF1 mice, survival T/C",
    "Reported result": "100 % of control"
  },
  {
    "Compound": "O=[As](O)(O)Cc1cccc(F)c1",
    "Target desc": "L1210 leukemia ip in BDF1 mice, survival T/C",
    "Reported result": "96 % of control"
  },
  {
    "Compound": "CN(C)CCCC1C2CCC(C2)C1C#N (stereo not drawn)",
    "Target desc": "L1210 leukemia ip in BDF1 mice, survival T/C",
    "Reported result": "96 % of control"
  },
  {
    "Compound": "CS(=O)(=O)c1ccc(F)c([N+](=O)[O-])c1",
    "Target desc": "L1210 leukemia ip in BDF1 mice, survival T/C",
    "Reported result": "92 % of control"
  },
  {
    "Compound": "Nc1nc(N)c(-c2ccc(Cl)c(Cl)c2)c(CBr)n1",
    "Target desc": "L1210 leukemia ip in BDF1 mice, survival T/C",
    "Reported result": "113 % of control"
  },
  {
    "Compound": "CC(Br)C(=O)c1cccc2ccccc12 (stereo not drawn)",
    "Target desc": "L1210 leukemia ip in BDF1 mice, survival T/C",
    "Reported result": "90 % of control"
  }
]

Memo: [Cl][Rh][Cl].c1cn[nH]c1.c1cn[nH]c1.c1cn[nH]c1.c1cn[nH]c1 , reported T/C: 95 % of control

Memo: CC(CN(C)C)C(=O)c1ccccc1 (stereo not drawn) , reported T/C: 91 % of control

Memo: CCCCCCCCCCCCCCCCCN , reported T/C: 100 % of control

Memo: O=S(=O)(c1ccc(Cl)cc1)C(F)F , reported T/C: 89 % of control

Memo: OC1(c2cccc(C(F)(F)F)c2)CCN(C2CC2)CC1 , reported T/C: 105 % of control
